- Tgt: Gag-Pol polyprotein (Human immunodeficiency virus type 1 group M subtype B (isolate HXB2))
- Protocol Description: RNase H inhibition, HIV 1 Gag Pol polyprotein, FRET biochemical assay, screening (AID 372)
- Details: HIV-1 RT RNase H, FRET RNA/DNA substrate fluorescence; at 10 µM; stronger effect = higher value
About 770 (0.77%) of roughly 100,000 compounds were called active. This excerpt belongs to a sample that is enriched for actives.
Record form. Attribute: inhibition. Fill in for each entry.

Reported inhibition for CCC1CCc2c(sc(N)c2C#N)C1 (stereo not given) : what is it?
18% (inactive)

Reported inhibition for `O=C(Nc1c(C(=O)Nc2ccc(Br)cc2)cnn1-c1ccccc1)c1ccco1` : what is it?
8% (inactive)

Reported inhibition for `CCOc1ccccc1NC(=O)CN(c1ccc(C)c(Cl)c1)S(C)(=O)=O` : what is it?
8% (inactive)

Reported inhibition for `COc1ccc(/C=C(\C#N)c2ccc(Cl)cc2)cc1OC` : what is it?
20% (inactive)

Reported inhibition for `CCOc1ccc(/C=N/N2CCN(Cc3cccc4ccccc34)CC2)cc1OC` : what is it?
13% (inactive)

---

- Tgt: Gag-Pol polyprotein (Human immunodeficiency virus type 1 group M subtype B (isolate HXB2)) (UniProt P04585)
- Protocol Description: RNase H inhibition, HIV 1 Gag Pol polyprotein, FRET biochemical assay, screening (AID 372)
- Details: HIV-1 RT RNase H, FRET RNA/DNA substrate fluorescence; at 10 µM; stronger effect = higher value
About 770 (0.77%) of roughly 100,000 compounds were called active. The list comes from a sample in which actives are over-represented; it also holds close analogues and randomly drawn compounds.
Record form. Attribute: inhibition. Fill in for each entry.
Write the number in % without appending the unit.

Reported inhibition for `CCOc1cc(C=O)cc(Br)c1OCc1ccc([N+](=O)[O-])cc1` : what is it?
28

Reported inhibition for `CCOc1cc(C=O)cc(Cl)c1OCc1ccc([N+](=O)[O-])cc1` : what is it?
54

Reported inhibition for `CCOC(=O)C(=Cc1cc(OC)c(O)c([N+](=O)[O-])c1)C(=O)OCC` : what is it?
5

Reported inhibition for `CCOC(=O)c1c(N)sc(C(=O)Nc2ccc(OC)cc2)c1C` : what is it?
9

Reported inhibition for `COC(=O)C(=Cc1cc(Br)c(OCc2ccc([N+](=O)[O-])cc2)c(OC)c1)C(=O)OC` : what is it?
12

Reported inhibition for `CCOC(=O)C(=Cc1ccc(OCc2ccc([N+](=O)[O-])cc2)c(OC)c1)C(=O)OCC` : what is it?
59

---

- Tgt: Gag-Pol polyprotein (Human immunodeficiency virus type 1 group M subtype B (isolate HXB2)) (UniProt P04585)
- Protocol Description: RNase H inhibition, HIV 1 Gag Pol polyprotein, FRET biochemical assay, screening (AID 372)
- Details: HIV-1 RT RNase H, FRET RNA/DNA substrate fluorescence; at 10 µM; stronger effect = higher value
About 770 (0.77%) of roughly 100,000 compounds were called active. This excerpt belongs to a sample that is enriched for actives.
Decision: inhibition >= 10% yields Y, all other cases yield N.

Can `COc1ccc(C2=C/C(=C/c3ccccc3OC)C(=O)O2)c(OC)c1` be said to have inhibition at or above 10%?
N

Can `O=C(N/N=C/c1ccccc1[N+](=O)[O-])c1ccc(O)c(O)c1` be said to have inhibition at or above 10%?
Y

Can `CCCCCC/C(=N\NC(=O)c1ccncc1)c1ccccc1` be said to have inhibition at or above 10%?
N

Can `O=C(N/N=C/c1cc([N+](=O)[O-])ccc1O)c1ccc(O)c(O)c1` be said to have inhibition at or above 10%?
Y

Can `Cc1ccccc1OCCOc1ccc(Br)cc1/C=C1\SC(N)=NC1=O` be said to have inhibition at or above 10%?
Y

Can `O=C(N/N=C/c1ccc(Cl)c([N+](=O)[O-])c1)c1cc(O)cc(O)c1` be said to have inhibition at or above 10%?
N

Can `Cc1ccc(/C=C2\SC(=Nc3ccc(F)cc3)NC2=O)o1` be said to have inhibition at or above 10%?
Y

Can COc1ccc(-c2ccccc2)cc1NCC1CC=CCC1 (stereo unspecified) be said to have inhibition at or above 10%?
Y

Can `CCOc1ccccc1NC(=O)CCN1C(=O)/C(=C/c2ccccc2Cl)SC1=S` be said to have inhibition at or above 10%?
Y

Can `Cc1sc2nc(-c3ccc(Br)cc3)[nH]c(=O)c2c1C` be said to have inhibition at or above 10%?
N

Can `O=C(N/N=C/c1ccccc1[N+](=O)[O-])c1cc(O)cc(O)c1` be said to have inhibition at or above 10%?
N

---

- Tgt: Gag-Pol polyprotein (Human immunodeficiency virus type 1 group M subtype B (isolate HXB2)) (UniProt P04585)
- Protocol Description: RNase H inhibition, HIV 1 Gag Pol polyprotein, FRET biochemical assay, screening (AID 372)
- Details: HIV-1 RT RNase H, FRET RNA/DNA substrate fluorescence; at 10 µM; stronger effect = higher value
The whole screen tested about 100,000 compounds, of which about 770 (0.77%) were called active. This excerpt belongs to a sample that is enriched for actives.
Record form. Attribute: inhibition. Fill in for each entry.
Write the number in % without appending the unit.

Reported inhibition for Cc1ccc(CNC(=O)C(=O)NCC2CCCO2)cc1 (centres undefined) : what is it?
9

Reported inhibition for `Cc1cccc(-n2c(C)cc(/C=N/NC(N)=S)c2C)c1` : what is it?
56

Reported inhibition for `CNC(=O)C(=O)NCCN1CCN(S(=O)(=O)c2ccc([N+](=O)[O-])cc2)CC1` : what is it?
0

Reported inhibition for `Cc1cc(/C=N/NC(N)=O)c(C)n1-c1cccc(Cl)c1` : what is it?
24

Reported inhibition for `COc1cc(C(=O)NC(=S)Nc2cccc(-c3nc4ncccc4o3)c2C)cc(OC)c1OC` : what is it?
17

Reported inhibition for `O=Cc1cc(Cl)c(OCc2ccc(F)cc2)c(Cl)c1` : what is it?
41

Reported inhibition for `Cc1cc2ncn(S(=O)(=O)c3cc([N+](=O)[O-])ccc3Cl)c2cc1C` : what is it?
57

Reported inhibition for `Cc1cc2ncn(S(=O)(=O)c3ccc(Cl)c([N+](=O)[O-])c3)c2cc1C` : what is it?
23

Reported inhibition for `Cc1cc(/C=N/NC(N)=S)c(C)n1-c1cccc([N+](=O)[O-])c1` : what is it?
52

Reported inhibition for `O=C(Nc1ccc(Cl)cc1Cl)c1ccc(-c2ccccc2)cc1` : what is it?
0

Reported inhibition for `CCn1c2ccccc2c2cc(NC(=O)COc3ccccc3Cl)ccc21` : what is it?
7

Reported inhibition for `O=C(CSc1cc(Cl)ccc1Cl)Nc1cccc(C(F)(F)F)c1` : what is it?
9

Reported inhibition for `Cc1nc2ccccn2c1-c1csc(Nc2ccc([N+](=O)[O-])cc2)n1` : what is it?
14

Reported inhibition for `Cc1nc2sccn2c1-c1csc(Nc2ccc(O)cc2)n1` : what is it?
12

Reported inhibition for `Cc1ccc(C(=O)Nc2cc(Cl)ccc2C)c(Cl)c1` : what is it?
14

Reported inhibition for `O=C(Nc1nnc(-c2cccc([N+](=O)[O-])c2)s1)Nc1ccc(Cl)cc1Cl` : what is it?
43

Reported inhibition for `Cc1ccc([N+](=O)[O-])cc1S(=O)(=O)n1cnc2ccccc21` : what is it?
22

Reported inhibition for `Nc1ncc(Cc2ccc(F)cc2)s1` : what is it?
6

Reported inhibition for `Cc1ccc(C)n1-c1ccc(CC(=O)O)cc1` : what is it?
47

Reported inhibition for `CCOC(=O)COc1ccc(/C=C2\C(=O)NC(=S)N(c3ccc(OCC)cc3)C2=O)cc1OC` : what is it?
9

Reported inhibition for `O=[N+]([O-])c1ccccc1S(=O)(=O)NCCSc1ccccc1` : what is it?
33

Reported inhibition for `O=C(Oc1ccc([N+](=O)[O-])cc1)c1ccc(Cl)c(S(=O)(=O)N2CCOCC2)c1` : what is it?
0

Reported inhibition for `O=C(Cc1ccccc1)Nc1ccc(C(=O)Nc2ccc(Cl)cc2Cl)cc1` : what is it?
59

Reported inhibition for `CC(=O)Nc1ccc(C(=O)Nc2ccc(Cl)cc2Cl)cc1` : what is it?
0

Reported inhibition for `COc1cccc(/C=C2/SC(NC(C)=O)=NC2=O)c1OC` : what is it?
8

Reported inhibition for `Cc1cc(/C=N/NC(N)=S)c(C)n1-c1cccc(Cl)c1` : what is it?
54

Reported inhibition for `Cc1cc(/C=N/NC(N)=S)c(C)n1-c1ccc(Cl)cc1` : what is it?
23

Reported inhibition for `CCOC(=O)c1sc(NC(=O)c2cc(Cl)ccc2OC)c(C(N)=O)c1C` : what is it?
2

Reported inhibition for CCC1CCc2c(sc(NC(=O)CCC(=O)O)c2C#N)C1 (centres undefined) : what is it?
2

Reported inhibition for `COc1ccc2ccccc2c1/C=C1/SC(NC(C)=O)=NC1=O` : what is it?
52

Reported inhibition for `COc1ccc(C)cc1NC(=O)COc1cccc2ccccc12` : what is it?
21

Reported inhibition for `CCN(Cc1ccccc1)C(=O)c1ccccc1C` : what is it?
6

Reported inhibition for `O=S(=O)(NCCSCc1ccccc1)c1ccc(Cl)cc1` : what is it?
15

Reported inhibition for `Cc1ccc(C(=O)N/N=C/C=C/c2ccc([N+](=O)[O-])cc2)cn1` : what is it?
1

Reported inhibition for `CCSc1nc(-c2ccccc2)nc(C(Cl)Cl)n1` : what is it?
25

Reported inhibition for `COc1ccccc1CNc1cccc(F)c1` : what is it?
0

Reported inhibition for CCOC(=O)C(CC)P(=O)(c1ccccc1)c1ccccc1 (centres undefined) : what is it?
0

Reported inhibition for `COc1ccc2c(c1)CC/C(=C\c1ccc([N+](=O)[O-])cc1)C2=O` : what is it?
4

Reported inhibition for `COc1ccccc1-n1c(C=C2C(=O)N(Cc3ccccc3)c3ccccc32)nc2ccccc2c1=O` : what is it?
9
